Data provenance: patent US10836794B2

substances and their reported Single impurities
# protocol-details: Stability of liquid pharmaceutical forms (peptide 0.2 %, benzalkonium chloride 0.01 %, water) during storage; single and total impurities
# Assay type: physicochemical
# condition-set: stored for 1 month at +4° C.; solution 0.2 mass % peptide, 0.01 mass % benzalkonium chloride
Non-standard residues stand in square brackets, D forms with d. No end group written: not given here. Hyp = O=C(O)[C@@H]1C[C@@H](O)CN1
measured-parameter: Single impurities

| substance | reported-measurement |
| --- | --- |
| Thr-Lys-Pro-Arg-Pro-Gly-Pro (TKPRPGP; not fully specified; printed as Thr-Lys-Pro-Arg-Pro-Gly-Pro) [heptopeptide “Selank”, a synthetic analogue of the endogenous peptide tuftsin, reference compound] | 0.05% |
| Thr-Lys-Pro-Arg-Pro (TKPRP; not fully specified; printed as Thr-Lys-Pro-Arg-Pro) [pentapeptide described in RU2507212, comparison peptide, reference compound] | 0.042% |
| Thr-Lys-Hyp-Arg-Hyp (TK[Hyp]R[Hyp]) [pentapeptide of the invention containing hydroxyproline] | 0.03% |
| Thr-Lys-Hyp-Arg-Hyp-Gly-Hyp (TK[Hyp]R[Hyp]G[Hyp]) [peptide according to the invention containing hydroxyproline] | 0.049% |
| Thr-Lys-Pro-Arg-Pro-Phe (TKPRPF; not fully specified; printed as Thr-Lys-Pro-Arg-Pro-Phe) [hexapeptide described in RU2507212, comparison peptide, reference compound] | 0.054% |
| Thr-Lys-Hyp-Arg-Hyp-Phe (TK[Hyp]R[Hyp]F) [hexapeptide of the invention containing hydroxyproline] | 0.067% |
